# Tested on: Bacillus subtilis
# TEST_DETAILS: cleaved RNA product abundance (RNA/gDNA barcode ratio) relative to median wild-type variant (ratio to wild type); higher = more accumulation of the downstream cleavage product
# MEASUREMENT_SETUP: experiment (reporter, strain, medium): exp 2b: truncated aprE reporter, strain BJT200; cleavage site: cggR-gapA (positions -7 to +36 mutated)
Lab note: compare cleaved RNA product abundance against 0.2. Equal or greater, write MET. Smaller, write NOT MET.

Worked cases, answers included:
>>> group("ACAGACGAAGGAGCCGCAAAGAAGTTATTAAGAGATGAATAATCCCTTAATATAAATATCTCTCACTTATTTAAA")
"MET"
>>> group("ACAGACGAAGGAGCCGCAAAGAAGTTATTAAAGGATGAATAATCCTTCAATATAAATATCTCTCACTTATTTAAA")
"MET"
>>> group("ACAGACGAAGGAGCCGCAAAGAAGTTAATAAGGGACGAATAATCCCTCAATATAAATATCTCTCACTTATTTAAA")
"NOT MET"

Could you please find out whether ACAGACGAAGGAGCCGCAAAGAAGTTATTAATGCATGAATAATCCCTCAATATAAATATCTCTCACTTATTTAAA has cleaved RNA product abundance that meets 0.2 or exceeds it?
NOT MET

Reported cleaved RNA product abundance at or above 0.2? ACAGACGAAGGAGCCGCAAAGAAGTTATTAAGGGACGAATAATCCCTCAATATAAATATCTCTCACTTATTTAAA
MET

// provenance: the supplement of paper PMC11780869
